Experiment: Homogenization stability in mouse tissues
Type: in vitro ADME
Conditions: blank lung tissue, homogenized
MEASURED_ATTRIBUTE: recovery at 324 ng/mL
Could you give the number and then its unit, please?

Q) Given COc1ccc2[nH]c3c(-c4cccc5ccccc45)nccc3c2c1 , state its recorded recovery at 324 ng/mL.
A) 89%

###

Experiment: Homogenization stability in mouse tissues
Format: in vitro ADME
Settings: blank kidney tissue, homogenized
MEASURED_ATTRIBUTE: recovery at 3240 ng/mL (%)
# unit: % | format: bare number

Q) Given COc1ccc2[nH]c3c(-c4cccc5ccccc45)nccc3c2c1 , state its recorded recovery at 3240 ng/mL.
A) 87.8

Origin of measurements: paper PMC4710169
